target: SARS-CoV-2 (2019-nCoV) Spike Protein (S1 Subunit, Fc Tag) (Sino 40591-V02H) (SARS-CoV-2, UniProt P0DTC2 16-685); experiment: Luminex bead binding, supernatant
valueKind: Binding signal (MFI)
Write down the numeric answer in MFI and omit the unit.

Consider the binder mAb10998 (antibody, V domains shown) VH: EVQLVESGGGLVHPGGSLRLSCAASGLTVSSNYMSWVRQAPGKGLEWVSVIYSGGSTYYADSVKGRFTISRHNSKNTLFLQMNSLRAEDTAVYYCARDRPITGTTLDVWGQGTTVTVSS VL: DIQMTQSPSSLFASVGDRVTITCRASQSISSYLNWYQQKPGKAPKLLIYAASSLQSGVPSRFSGSGSGTDFTLTISSLQPEDFAFYYCQQTYSTPPITFGQGTRLEIK . State its measured Binding signal (MFI).
724
